Values compiled from the supplement of paper PMC10567573.

B1: PTPN9 (parent)
chain: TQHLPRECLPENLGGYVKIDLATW

variants of: B1; assay: protein stability index of a GFP-peptide fusion (GPS, HEK-293T) (PSI 1-6); higher = more stable; settings: c terminus: a fixed tail appended;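 also: lentivirally expressed fusions sorted by FACS into six bins by GFP to DsRed ratio, PSI derived from sequencing read proportions per bin multiplied by bin number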
Kindly return TRUE if reported protein stability index is no lower than 2; return FALSE if it is lower.

Solved cases (10 shown):
T1F: TRUE
R6M: TRUE
I19D: TRUE
K18I: TRUE
D20W: TRUE
T1K: FALSE
R6T: TRUE
K18N: TRUE
P10W: FALSE
G14D: TRUE

Evaluate `I19T` : protein stability index at minimum 2?
TRUE

Evaluate `K18W` : protein stability index at minimum 2?
TRUE

Evaluate `L21I` : protein stability index at minimum 2?
FALSE

Evaluate `R6S` : protein stability index at minimum 2?
TRUE

Evaluate `K18R` : protein stability index at minimum 2?
FALSE

Evaluate `H3Y` : protein stability index at minimum 2?
FALSE
